Target: CXCR4 receptor (human, UniProt P61073 1-352)
Sequence (P61073 whole entry): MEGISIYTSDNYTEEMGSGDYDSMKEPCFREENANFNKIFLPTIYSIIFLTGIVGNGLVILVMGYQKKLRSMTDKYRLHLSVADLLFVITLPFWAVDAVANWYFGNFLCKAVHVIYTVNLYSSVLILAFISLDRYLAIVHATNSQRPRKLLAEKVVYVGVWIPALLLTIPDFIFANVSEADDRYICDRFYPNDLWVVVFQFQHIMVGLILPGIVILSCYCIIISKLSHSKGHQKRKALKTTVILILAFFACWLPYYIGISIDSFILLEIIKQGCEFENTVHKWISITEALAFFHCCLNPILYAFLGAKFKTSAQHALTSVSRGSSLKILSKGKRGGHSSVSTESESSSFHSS
Assay: cell-based or functional assay
Ends that are not written are not given here. * marks the point of attachment. Palmitoyl = CCCCCCCCCCCCCCCC(=O)*
METRIC NAME: AUC (% of vehicle), chemotaxis, CEM, 1.0 uM

Illustrative cases are given below, each with its answer.
**Q:** What measured AUC (% of vehicle), chemotaxis, CEM, 1.0 uM goes with Palmitoyl-IIISKLSHSKGHQKRKALKT (not fully specified (C-terminus); also: dual lipid, second lipid position not given here) [CXCR4 i3 loop compound 104] ?
**A:** 36.4 % of vehicle

**Q:** What measured AUC (% of vehicle), chemotaxis, CEM, 1.0 uM goes with KLSHSKGHQKRKALKTTVIL-NH2 (not fully specified (N-terminus); also: dual lipid, backbone lipid not given here) [CXCR4 i3 loop compound 105] ?
**A:** 23.8 % of vehicle

**Q:** What measured AUC (% of vehicle), chemotaxis, CEM, 1.0 uM goes with Palmitoyl-KLSHSKGHQKRKA-NH2 (SMILES CCCCCCCCCCCCCCCC(=O)N[C@@H](CCCCN)C(=O)N[C@@H](CC(C)C)C(=O)N[C@@H](CO)C(=O)N[C@@H](Cc1c[nH]cn1)C(=O)N[C@@H](CO)C(=O)N[C@@H](CCCCN)C(=O)NCC(=O)N[C@@H](Cc1c[nH]cn1)C(=O)N[C@@H](CCC(N)=O)C(=O)N[C@@H](CCCCN)C(=O)N[C@@H](CCCNC(=N)N)C(=O)N[C@@H](CCCCN)C(=O)N[C@@H](C)C(N)=O) [CXCR4 i3 loop compound 94] ?
**A:** 65.3 % of vehicle

**Q:** What measured AUC (% of vehicle), chemotaxis, CEM, 1.0 uM goes with Palmitoyl-KLSHSKGHQKRKAL-NH2 (SMILES CCCCCCCCCCCCCCCC(=O)N[C@@H](CCCCN)C(=O)N[C@@H](CC(C)C)C(=O)N[C@@H](CO)C(=O)N[C@@H](Cc1c[nH]cn1)C(=O)N[C@@H](CO)C(=O)N[C@@H](CCCCN)C(=O)NCC(=O)N[C@@H](Cc1c[nH]cn1)C(=O)N[C@@H](CCC(N)=O)C(=O)N[C@@H](CCCCN)C(=O)N[C@@H](CCCNC(=N)N)C(=O)N[C@@H](CCCCN)C(=O)N[C@@H](C)C(=O)N[C@@H](CC(C)C)C(N)=O) [CXCR4 i3 loop compound 93] ?
**A:** 15.9 % of vehicle

Attention now shifts to the item below.
**Q:** What measured AUC (% of vehicle), chemotaxis, CEM, 1.0 uM goes with Palmitoyl-HSKGHQKRKALKTTVI-NH2 (SMILES CCCCCCCCCCCCCCCC(=O)N[C@@H](Cc1c[nH]cn1)C(=O)N[C@@H](CO)C(=O)N[C@@H](CCCCN)C(=O)NCC(=O)N[C@@H](Cc1c[nH]cn1)C(=O)N[C@@H](CCC(N)=O)C(=O)N[C@@H](CCCCN)C(=O)N[C@@H](CCCNC(=N)N)C(=O)N[C@@H](CCCCN)C(=O)N[C@@H](C)C(=O)N[C@@H](CC(C)C)C(=O)N[C@@H](CCCCN)C(=O)N[C@H](C(=O)N[C@H](C(=O)N[C@H](C(=O)N[C@H](C(N)=O)[C@@H](C)CC)C(C)C)[C@@H](C)O)[C@@H](C)O) [CXCR4 i3 loop compound 100] ?
**A:** 49.3 % of vehicle

FYI, the data here is from patent US20130210709A1.
